B1: OR4K15 (parent)
chain: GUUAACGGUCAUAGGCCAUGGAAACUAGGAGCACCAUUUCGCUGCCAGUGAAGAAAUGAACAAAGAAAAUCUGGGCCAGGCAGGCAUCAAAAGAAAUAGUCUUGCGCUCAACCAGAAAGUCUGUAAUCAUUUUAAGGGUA

Variants of: B1
Measurement notes: self-cleavage, relative activity (ratio to wild type); higher = more cleavage; in vitro, sequencing; the parent is a self-cleaving ribozyme
Use 1 as the dividing line for self-cleavage, with the line itself on the YES side and lower values as NO.

U2C A94G	YES
A33U A126G	YES
A5U A95U	YES
A11G U70C	NO
A47U U70G	YES

Req: Would you say A18U A66C shows self-cleavage at minimum 1?
Resp: YES

Req: Would you say A51U A67G shows self-cleavage at minimum 1?
Resp: YES

Req: Would you say C16U G80A shows self-cleavage at minimum 1?
Resp: NO

Req: Would you say A23G A117G shows self-cleavage at minimum 1?
Resp: YES

Req: Would you say C32U A55G shows self-cleavage at minimum 1?
Resp: NO

Req: Would you say G14A U72C shows self-cleavage at minimum 1?
Resp: NO

Req: Would you say "A54C" shows self-cleavage at minimum 1?
Resp: YES
